Attribution: PubChem BioAssay AID1996

details: buffer; pH 7.4; 200.0 µM
recorded endpoint: solubility kinetic

# compound, value reported
data = [
    ("Cc1cccc(NC(=O)OC2CN3CCC2CC3)c1 (stereo not given)", "> 39.1 µg/mL"),
    ("CCOc1ccc(C(=O)NCC(c2ccco2)N2CCOCC2)cc1 (stereo not given)", "> 51.7 µg/mL"),
    ("Cc1cc(NC(=O)CS(=O)(=O)c2c[nH]c3ccccc23)no1", "> 47.9 µg/mL"),
    ("COc1ccc(CC(C)Nc2ccccc2F)cc1 (stereo not given)", "< 0.6 µg/mL"),
    ("O=C(O)c1ccccc1Nc1ccc([N+](=O)[O-])cc1C(=O)O", "> 45.3 µg/mL"),
]

====

conditions: buffer; pH 7.4; 200.0 µM

# compound, reading unit, comparator, solubility kinetic
data = [
    ("CCOC(=O)C[N+]1(C)CCN(C(C)=O)CC1.[Br-]", "µg/mL", ">", 46.4),
    ("O=C(Nc1cc([N+](=O)[O-])ccc1F)c1ccc2ccccc2c1", "µg/mL", "<", 0.3),
    ("Cc1nc2c(ncn2-c2ccccc2)c(=O)n1NC(=O)CN1CCCC1", "µg/mL", ">", 52.9),
    ("NC(=S)N/N=C/c1c[nH]c2ccccc12", "µg/mL", ">", 32.7),
    ("CC(C)c1ccccc1NC(=O)CC1(CC(=O)O)CCCC1", "µg/mL", ">", 45.5),
    ("COc1cccc(NC(=O)N2CCc3ccccc3C2)c1", "µg/mL", ">", 42.4),
    ("O=C(NCc1ccccc1)c1csc(-c2cccnc2)n1", "µg/mL", ">", 44.3),
    ("COc1cccc(C(=O)Nc2cc(C)nn2-c2ccccc2)c1OC", "µg/mL", ">", 50.6),
    ("CN(C)/C=C/C(=O)c1cccc(C(F)(F)F)c1", "µg/mL", ">", 36.5),
    ("Cc1cc(=O)oc2cc(OCC(=O)NC3CCCC3)ccc12", "µg/mL", "=", 22.9),
    ("O=C(NCCc1ccc(F)cc1)c1ccc2nccnc2c1", "µg/mL", "=", 41.6),
    ("O=C(Nc1sc2c(c1C(=O)O)CCC2)c1cccc(Cl)c1", "µg/mL", ">", 48.3),
    ("O=c1[nH]c(=S)n(-c2ccccc2)c(O)c1C=NCc1ccccn1", "µg/mL", ">", 50.8),
    ("O=Nc1[nH]c(=O)c(/C=C(\\O)c2ccccc2)nc1NO", "µg/mL", "=", 33.8),
    ("COc1ccc(CCC(C)NCc2cc(OC)cc(OC)c2)cc1 (configuration not stated)", "µg/mL", "=", 38.7),
    ("O=C1NCC(O)=C1C=Nc1ccccc1O", "µg/mL", ">", 32.7),
    ("CNC(=O)c1oc(-c2ccc(Cl)cc2)nc1C", "µg/mL", ">", 37.6),
    ("COc1ccc(CNC(=O)c2cc3c(=O)[nH]c4ccccc4c3n2C)cc1", "µg/mL", "<", 0.3),
    ("Cc1cc(NC(=O)c2cc(-c3ccc(Br)cc3)on2)no1", "µg/mL", "=", 3),
    ("CCN1C(=O)CCCc2ccccc21", "µg/mL", ">", 28.4),
    ("CCc1cc2cc(C)ccc2nc1SCC(=O)NC1CCCC1", "µg/mL", "<", 0.4),
    ("O=C(Nc1c(-c2ccc(F)cc2)nc2ccccn12)c1ccc(F)cc1", "µg/mL", "=", 3.3),
    ("O=C(Nc1ccc(N2CCCCC2)c(S(=O)(=O)Nc2ccccc2Cl)c1)c1cccnc1", "µg/mL", "=", 1.5),
    ("CSc1nc(=S)n(-c2ccccc2)c(C)c1C(C)=O", "µg/mL", "=", 41.7),
    ("O=C(CSc1nncs1)Nc1nccs1", "µg/mL", ">", 38.7),
    ("Cc1cc(N2CCC(C)CC2)nc(-c2ccccc2O)n1", "µg/mL", "<", 0.2),
    ("CC1CCCC(NC(=O)COC(=O)c2ccc([N+](=O)[O-])s2)C1C (configuration not stated)", "µg/mL", "=", 15.4),
    ("CCOc1ccc(N(C)S(=O)(=O)c2ccc(C)c(C(=O)N3CCN(Cc4ccc5c(c4)OCO5)CC3)c2)cc1", "µg/mL", "=", 15.2),
    ("CCNC(=O)COC(=O)c1cc(-c2ccccc2)nn1-c1ccccc1", "µg/mL", ">", 52.4),
    ("Cc1ccc(C(=O)NCCNC(=O)c2cnccn2)cc1", "µg/mL", "=", 34.9),
    ("CC(C)(C)c1nc(SCC(=O)NC2CCCC2)c2ccccc2n1", "µg/mL", "=", 0.6),
    ("COc1ccccc1Nc1nc(NCc2ccco2)nc(N)c1[N+](=O)[O-]", "µg/mL", "<", 0.1),
    ("Cc1cc(C)c(C)c(S(=O)(=O)NCC(=O)Nc2ccc(F)cc2)c1C", "µg/mL", "=", 3.9),
    ("CC1CCCC1/C(=N/O)c1ccccc1 (configuration not stated)", "µg/mL", "=", 16.9),
    ("COc1ccc(CC(=O)N2CCN(c3ccc(F)cc3)CC2)cc1", "µg/mL", "=", 38.3),
    ("CC1=C(C)CC(C(=O)Nc2nc(C)cs2)C(C(=O)O)C1 (configuration not stated)", "µg/mL", ">", 44.2),
    ("CN(Cc1ccc2ccccc2c1)C(=O)c1ccc(C(F)(F)F)cc1", "µg/mL", "=", 4.6),
    ("O=C(Cc1ccc(Cl)cc1)NC1CCCCCC1", "µg/mL", "=", 10.2),
    ("Cc1ccc(CNc2ccc3c(c2)nc(C)n3C)cc1", "µg/mL", "=", 38.3),
    ("COCCCNc1nc(N)c([N+](=O)[O-])c(NC2CCCCC2)n1", "µg/mL", "=", 2.8),
    ("CCOC(=O)c1sc(NC(=O)CCc2ccccc2)nc1C", "µg/mL", "<", 0.3),
    ("COc1ccccc1NS(=O)(=O)c1ccc(N2CCOCC2)c(N)c1", "µg/mL", "=", 5.1),
]

====

details: buffer; pH 7.4; 200.0 µM
recorded endpoint: log10 solubility kinetic (log10 of the value in mg/mL)

# compound, log10 solubility kinetic
measured = [
    ("CCc1ccc(CN2CCSCC2)cc1", -2.07),
    ("Cn1c(N)c(C(=O)COC(=O)/C=C/c2cccc(Cl)c2)c(=O)n(C)c1=O", -2.48),
    ("CCOCCCn1c(=NC(C)=O)c(C#N)cc2c(=O)n3cccc(C)c3nc21", -1.48),
    ("Cc1cc(C)c2c3c(oc2n1)C(=O)N(c1cccc(Cl)c1)CC(=O)N3", -3.15),
    ("CCOc1ccccc1C(=O)NCC(=O)NCCCSc1ccccc1", -2.60),
    ("O=C1Cc2ccccc2C(c2ccc(Cl)cc2)N1 (centres undefined)", -1.52),
    ("O=C1NC2(CCCCC2)C(=O)N1c1ccc(Cl)cc1", -2.42),
    ("COc1ccc2[nH]c3c(c2c1)CCNC3C.Cl (centres undefined)", -1.52),
    ("CCn1c(C)cc(C(=O)COC(=O)c2ccccc2[N+](=O)[O-])c1C", -1.82),
    ("FC(F)(F)c1ccccc1NC(=S)N1CCCC1", -1.48),
    ("Cc1ccc(NC(=O)C(=O)Nc2ccc(C)cn2)nc1", -2.74),
    ("Cc1ccnc(NC(=O)c2oc3ccccc3c2C)c1", -2.44),
    ("Cc1c(NC(=O)c2ccc3nsnc3c2)cccc1[N+](=O)[O-]", -2.64),
    ("O=C(COC(=O)c1ccc2ncsc2c1)Nc1ccccc1Cl", -2.40),
    ("FC(F)Oc1ccc(N=C2SCC3CCCCN23)cc1 (centres undefined)", -1.82),
    ("CCc1c(C)nc(N2CCN(c3ccc(OC)cc3)CC2)[nH]c1=O", -2.26),
    ("CCNc1c(NC(=O)c2cccs2)c(=O)oc2ccccc12", -2.35),
    ("O=C1COc2ccc(C(=O)COC(=O)c3ccccc3Cl)cc2N1", -2.35),
    ("CCN(CC)CCn1c(NC(=O)c2ccccc2O)nc2ccccc21", -1.73),
]

====

// solubility kinetic lookup, one value per entry
settings: buffer; pH 7.4; 200.0 µM
recorded endpoint: solubility kinetic (µg/mL)

# molecule, comparator, value reported
data = [
    ("Nc1nc(-c2ccc3c(c2)OCCO3)c(CC(=O)O)s1", "=", 41.1),
    ("CC(=O)Nc1ccccc1Oc1ccccc1", ">", 34.1),
    ("CC(C)(C)C(=O)/C=C1\\NC(=O)CS1", ">", 29.9),
    ("Cc1nc(SCC(=O)N2CCNC2=O)c2ccccc2n1", ">", 45.4),
    ("Cc1ccc(NC(=S)NCc2ccccc2)c(C)c1", "=", 39.2),
    ("CNC(=O)C(=O)Nc1cc2c3c(c1)C(C)C(=O)N3CCC2 (stereo not given)", ">", 43.1),
    ("O=c1cc(C(F)(F)F)nc(SC/C=C/c2ccccc2)[nH]1", ">", 46.8),
    ("CCOc1ccccc1NC(=O)CN1CCCCCC1.Cl", "=", 32.9),
    ("O=C(Cc1ccc(F)cc1)Nc1nc(-c2ccc(F)c(F)c2)cs1", "=", 1.4),
    ("CC(C)NS(=O)(=O)c1ccc(NC(=O)Cc2ccsc2)cc1", ">", 50.8),
    ("CC(NC(=O)c1ccccc1)C(=O)N/N=C/c1ccco1 (stereo not given)", ">", 42.8),
    ("Cc1cc(CNC(=O)c2cccnc2Cl)c2ccccc2n1", "=", 39.1),
    ("O=C1N=C(N2CCOCC2)S/C1=C\\c1ccncc1", ">", 41.3),
    ("COc1cccc(CN(C)Cc2nc(C3CC3)no2)c1", ">", 41),
    ("Cc1occc1C(=O)Nc1ccc(OCc2ccccc2)cc1", "=", 2.1),
]
